procedure_text: E. coli DRC41 culture turbidity changes, primary screen, E. coli filamentation inducer project, strain DRC41, OD650, 48 h (AID 1152);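 also: E. coli MC1000 strain DRC41 lacking acrAB efflux pump and sulA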
setup_conditions: E. coli DRC41 (acrAB sulA), higher = more signal, called active from +8 up or from −8 down
Bucketed by reported z-score, buckets being A (below -0.9), B (-0.9 to below -0.1), C (-0.1 or more)

Record `O=C1O[C@@H](c2ccccc2)[C@@H](c2ccccc2)N2[C@@H](c3ccccc3OCCO)[C@]3(C(=O)Nc4ccc(C#CC5=CCCCC5)cc43)[C@@H](C(=O)Nc3nc4ccccc4s3)[C@H]12` — which class?
C

Continuing:
Record CCOC(=O)C1=CCC(c2ccccc2)N(S(=O)(=O)CC[Si](C)(C)C)C1 (centres undefined) — which class?
B

Can you check `Cc1ccc(S[C@]2(C(=O)NC(C)C)CC(=O)N(Cc3ccccc3Cl)[C@@H]2c2ccc(CO)cc2I)cc1` next?
B

Can you check `CCCCC(=C=CC[C@@H](O)c1ccccc1OCCO)CCO` next?
C

---

Assignment: determine reported z-score for the given molecules.
procedure_text: P. aeruginosa biofilm formation inhibitors, primary screen, strain PAO1, LB-PBS medium, absorbance 600 nm (AID 1176); also: test concentration not given here
setup_conditions: P. aeruginosa PAO1 growth/biofilm, A600, 12 h; higher = more signal
Numbers only.

Each molecule below has a recorded value; state its z-score.
1. [N-]=[N+]=NCc1ccccc1[C@H]1OC(c2ccc(OCCCO)cc2)=N[C@@]1(Cc1ccccc1)C(=O)NCc1ccccc1
2. COC(=O)[C@@]1(Cc2ccccc2)[C@H]2c3cc(C(=O)N4CCCC4)n(CC4CC4)c3C[C@H]2CN1C(=O)c1ccccc1
3. CC(C)[C@@H](CO)NC(=O)[C@H]1[C@@H](c2ccccc2)N(c2ccccc2)O[C@@H]1C
4. C=CCOC(=O)[C@H]1[C@@H]2C(=O)O[C@@H](c3ccccc3)[C@@H](c3ccccc3)N2[C@@H](c2ccc(OCCOC(=O)[C@H]3C[C@H]4C(=O)N5CCC[C@H]5C(=O)N4[C@H]3c3ccc(O)cc3)cc2)[C@]12C(=O)Nc1ccc(I)cc12
5. COc1ccc([Si](C)(C)[C@H]2[C@H](CCO)O[C@@]3(C(=O)N(Cc4ccc(N5C(=O)COc6ccccc65)cc4)c4ccccc43)[C@@H]2C)cc1
6. CC(C)C[C@@H]1NC(=O)[C@H]2C[C@@H](C(=O)NCCCCCCN(C)C)[C@@H](c3ccc(O)cc3)N2C1=O

[0.702, 0.936, 0.0573, 2.43, 3.06, -0.214]

---

tested_system: Neurogenic locus notch homolog protein 2 (Homo sapiens) (UniProt Q04721)
Sequence (Q04721 whole entry, looked up): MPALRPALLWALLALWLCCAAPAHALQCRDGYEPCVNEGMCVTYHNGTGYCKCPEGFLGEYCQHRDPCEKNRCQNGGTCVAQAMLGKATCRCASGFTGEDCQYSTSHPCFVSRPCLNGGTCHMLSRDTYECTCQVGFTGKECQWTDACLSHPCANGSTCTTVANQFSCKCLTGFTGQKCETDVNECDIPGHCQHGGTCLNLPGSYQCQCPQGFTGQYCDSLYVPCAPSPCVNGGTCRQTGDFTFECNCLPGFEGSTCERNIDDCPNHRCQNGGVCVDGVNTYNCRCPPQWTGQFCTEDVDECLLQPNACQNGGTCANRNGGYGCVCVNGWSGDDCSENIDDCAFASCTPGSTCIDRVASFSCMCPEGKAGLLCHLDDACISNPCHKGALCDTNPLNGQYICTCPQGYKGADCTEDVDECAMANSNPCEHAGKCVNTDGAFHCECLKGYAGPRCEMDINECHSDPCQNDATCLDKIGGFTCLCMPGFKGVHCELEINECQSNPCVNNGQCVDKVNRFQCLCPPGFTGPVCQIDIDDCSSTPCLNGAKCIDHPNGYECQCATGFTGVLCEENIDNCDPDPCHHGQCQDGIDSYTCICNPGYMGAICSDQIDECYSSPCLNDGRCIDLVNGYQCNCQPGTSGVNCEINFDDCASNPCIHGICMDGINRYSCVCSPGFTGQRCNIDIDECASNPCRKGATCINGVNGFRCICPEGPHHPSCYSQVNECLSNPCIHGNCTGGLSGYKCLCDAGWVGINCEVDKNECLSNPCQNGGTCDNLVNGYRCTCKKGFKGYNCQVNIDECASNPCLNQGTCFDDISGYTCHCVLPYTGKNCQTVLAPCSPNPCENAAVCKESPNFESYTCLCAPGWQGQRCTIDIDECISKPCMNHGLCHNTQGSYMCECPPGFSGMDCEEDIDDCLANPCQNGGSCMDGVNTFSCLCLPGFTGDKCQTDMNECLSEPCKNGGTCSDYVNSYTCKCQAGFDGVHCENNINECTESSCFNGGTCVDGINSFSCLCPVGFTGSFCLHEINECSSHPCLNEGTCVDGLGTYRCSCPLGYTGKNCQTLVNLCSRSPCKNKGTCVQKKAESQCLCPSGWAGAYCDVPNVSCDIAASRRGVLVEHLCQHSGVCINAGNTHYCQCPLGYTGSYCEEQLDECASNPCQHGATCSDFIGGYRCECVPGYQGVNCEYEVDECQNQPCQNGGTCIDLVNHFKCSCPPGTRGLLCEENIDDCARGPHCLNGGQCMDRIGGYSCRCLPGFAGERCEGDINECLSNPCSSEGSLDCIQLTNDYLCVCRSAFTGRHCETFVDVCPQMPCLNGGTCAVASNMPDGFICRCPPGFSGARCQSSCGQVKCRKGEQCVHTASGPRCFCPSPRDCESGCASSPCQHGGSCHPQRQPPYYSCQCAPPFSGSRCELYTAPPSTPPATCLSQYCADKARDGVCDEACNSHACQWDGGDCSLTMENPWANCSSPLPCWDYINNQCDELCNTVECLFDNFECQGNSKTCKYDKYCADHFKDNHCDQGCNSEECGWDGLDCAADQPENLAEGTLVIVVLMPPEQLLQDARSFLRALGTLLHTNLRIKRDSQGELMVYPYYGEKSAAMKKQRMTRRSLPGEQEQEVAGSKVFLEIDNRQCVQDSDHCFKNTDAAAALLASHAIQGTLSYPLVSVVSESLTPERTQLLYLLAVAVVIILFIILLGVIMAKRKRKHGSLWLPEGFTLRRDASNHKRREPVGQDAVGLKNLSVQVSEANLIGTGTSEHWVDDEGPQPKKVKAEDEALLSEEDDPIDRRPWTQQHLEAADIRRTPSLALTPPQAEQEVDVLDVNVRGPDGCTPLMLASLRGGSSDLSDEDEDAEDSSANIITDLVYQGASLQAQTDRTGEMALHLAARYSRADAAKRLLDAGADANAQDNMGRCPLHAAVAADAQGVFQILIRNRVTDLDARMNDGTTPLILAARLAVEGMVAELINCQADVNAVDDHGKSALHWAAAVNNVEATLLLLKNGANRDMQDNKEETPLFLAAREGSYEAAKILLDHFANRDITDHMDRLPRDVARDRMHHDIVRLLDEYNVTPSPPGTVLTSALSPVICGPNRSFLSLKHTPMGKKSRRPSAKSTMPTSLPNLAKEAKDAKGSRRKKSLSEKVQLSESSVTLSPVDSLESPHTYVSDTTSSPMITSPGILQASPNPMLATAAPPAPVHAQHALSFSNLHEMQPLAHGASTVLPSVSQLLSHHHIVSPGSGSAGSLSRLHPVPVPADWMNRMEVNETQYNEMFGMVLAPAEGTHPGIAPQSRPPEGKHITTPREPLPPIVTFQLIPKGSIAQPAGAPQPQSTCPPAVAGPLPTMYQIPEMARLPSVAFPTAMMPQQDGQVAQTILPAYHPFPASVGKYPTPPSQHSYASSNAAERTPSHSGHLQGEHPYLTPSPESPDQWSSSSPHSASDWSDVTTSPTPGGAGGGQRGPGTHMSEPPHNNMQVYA
procedure_text: Notch2 binders on small-molecule microarrays, primary screen, biochemical, small-molecule microarray, 635 nm fluorescence, stem cell growth factors (AID 1073)
setup_conditions: Notch2 binding, higher = more signal
Assignment: determine reported composite z-score for the given molecules.
One number for each entry.

What does the data say about its composite z-score? Entry: CN1C(=O)C2C=CC(C(O)C3CCCCC3)N(Nc3ccc([N+](=O)[O-])cc3[N+](=O)[O-])C2C1=O (stereo unspecified)
1.6

Can you check `COCCOC(=O)N1C(=O)[C@@]2(c3cc(C#CC4=CCCCC4)ccc31)[C@H](C(=O)N1CCc3cc(OC)c(OC)cc3C1)[C@H]1C(=O)O[C@H](c3ccccc3)[C@H](c3ccccc3)N1[C@@H]2c1ccc(OCCO)cc1` next?
1.1

Each molecule below has a recorded value; state its composite z-score.
1. COCCOC(=O)N1C(=O)[C@@]2(c3cc(C#Cc4ccc(OC)cc4)ccc31)[C@H](c1ccc(O)cc1)N1[C@H](c3ccccc3)[C@H](c3ccccc3)OC(=O)[C@H]1[C@@H]2C(=O)NC[C@H](O)c1ccccc1
2. COC(=O)[C@@]1(Cc2ccccc2)[C@H]2c3cc(C(=O)N4CCCC4)n(Cc4cccc5ccccc45)c3C[C@H]2CN1C(=O)c1ccccc1
3. COC(=O)[C@@]1(Cc2ccc(OC)cc2)[C@H]2c3cc(C(=O)N(C)C)n(Cc4cccc5ccccc45)c3C[C@H]2CN1C(=O)c1ccccc1
4. C=CCNC(=O)[C@@H]1[C@H]2C(=O)O[C@H](c3ccccc3)[C@H](c3ccccc3)N2[C@H](c2ccccc2OCCO)[C@@]12C(=O)N(C(=O)OCCOC)c1ccc(C#CCNC(N)=O)cc12

1. 1.29
2. 1.63
3. 1.27
4. 0.524
